Data provenance: ChEMBL document CHEMBL1201862

Overview of recorded EC50 for various molecules
# assayed-target: Luciferin 4-monooxygenase (Photinus pyralis, UniProt P08659)
# Sequence (P08659 whole entry): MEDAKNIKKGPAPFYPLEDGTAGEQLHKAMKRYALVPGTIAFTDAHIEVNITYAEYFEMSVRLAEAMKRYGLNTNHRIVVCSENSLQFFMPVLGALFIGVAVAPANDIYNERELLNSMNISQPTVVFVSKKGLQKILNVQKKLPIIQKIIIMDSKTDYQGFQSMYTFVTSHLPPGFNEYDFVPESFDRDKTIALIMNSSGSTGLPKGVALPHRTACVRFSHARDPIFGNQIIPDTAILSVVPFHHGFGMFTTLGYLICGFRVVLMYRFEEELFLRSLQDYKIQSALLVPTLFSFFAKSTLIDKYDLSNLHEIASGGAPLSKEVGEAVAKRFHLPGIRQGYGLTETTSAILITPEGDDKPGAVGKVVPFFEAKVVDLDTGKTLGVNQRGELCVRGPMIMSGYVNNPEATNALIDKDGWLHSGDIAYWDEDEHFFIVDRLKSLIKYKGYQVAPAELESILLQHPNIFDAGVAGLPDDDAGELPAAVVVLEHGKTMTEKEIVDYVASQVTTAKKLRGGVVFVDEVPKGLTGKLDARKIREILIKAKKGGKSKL
# method-notes: Counter Screen for Luciferase-based Assay Positives. [Related pubchem assays: 620, 618, 411 ]
Calls of active or inactive are those of the source. Rule as the data show it: actives have a measured EC50 and inactives only a lower limit.

- line-notation: "CCCCc1ccc(-c2nc(-c3ccncc3)no2)cc1"
  assayed-target: "Luciferin 4-monooxygenase (Photinus pyralis, UniProt P08659)"
  EC50: "60.6 µM (active)"
- line-notation: "Cc1nc(NC2=NCN(CCCN3CCOCC3)CN2)nc2c(C)cccc12"
  assayed-target: "Luciferin 4-monooxygenase (Photinus pyralis, UniProt P08659)"
  EC50: "3.36 µM (active)"
- line-notation: "CC(C)C(=O)Nc1ccc(NC(=O)c2ccccn2)cn1"
  assayed-target: "Luciferin 4-monooxygenase (Photinus pyralis, UniProt P08659)"
  EC50: "0.44 µM (active)"

Next:
Prompt: For the molecule CC(=O)N(Cc1ccc(F)cc1)C1=C(NCCc2ccccc2)C(=O)c2ccccc2C1=O , what EC50 is on record?
Completion: 7.95 µM (active)

* * *

# assayed-target: Corticotropin-releasing factor receptor 2/Corticotropin-releasing factor-binding protein (Homo sapiens, UniProt P24387+Q13324)
# Sequence (Q13324 whole entry): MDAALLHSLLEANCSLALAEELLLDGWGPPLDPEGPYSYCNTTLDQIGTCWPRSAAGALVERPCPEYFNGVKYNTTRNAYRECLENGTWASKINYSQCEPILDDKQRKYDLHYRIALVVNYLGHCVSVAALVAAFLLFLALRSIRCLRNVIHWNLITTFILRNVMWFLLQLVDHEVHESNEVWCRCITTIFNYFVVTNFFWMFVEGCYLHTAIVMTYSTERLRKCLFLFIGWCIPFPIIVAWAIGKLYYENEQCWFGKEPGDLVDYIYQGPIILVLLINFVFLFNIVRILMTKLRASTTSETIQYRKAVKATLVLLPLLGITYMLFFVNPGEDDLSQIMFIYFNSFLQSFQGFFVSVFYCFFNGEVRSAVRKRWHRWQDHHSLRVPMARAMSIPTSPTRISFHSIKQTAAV
# Sequence (P24387 whole entry): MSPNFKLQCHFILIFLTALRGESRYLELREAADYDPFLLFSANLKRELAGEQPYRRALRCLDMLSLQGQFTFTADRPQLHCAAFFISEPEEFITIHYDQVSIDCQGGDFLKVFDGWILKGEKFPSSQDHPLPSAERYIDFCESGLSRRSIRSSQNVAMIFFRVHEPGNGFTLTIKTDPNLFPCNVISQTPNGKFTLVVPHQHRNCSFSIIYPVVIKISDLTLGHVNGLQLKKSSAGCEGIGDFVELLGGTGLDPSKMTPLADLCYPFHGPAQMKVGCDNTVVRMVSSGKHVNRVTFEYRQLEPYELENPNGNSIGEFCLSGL
# method-notes: activators of CRF receptor 2 with binding protein – uHTS hits, confirmation (AID 602473)
# Format: functional
# reported-conditions: read-out: EC50_Mean
Active and inactive are the calls of the source. Cut-off read from the data, not from the text of the source: actives have a measured EC50 and inactives only a lower limit.
Write down the outcome that applies. Available outcomes: t for active, f for inactive

Solved entries:
- compound: "Clc1ccc(-n2cc(COCc3ccccc3)nn2)cc1"
  qualitative-label: "f"
- compound: "CC1CCN(S(=O)(=O)c2ccc3c(c2)NC(=O)CS3)CC1"
  qualitative-label: "f"
- compound: "Cc1cnc(NC(=O)CSc2ncc(-c3ccccc3)n2Cc2ccco2)s1"
  qualitative-label: "t"
- compound: "Fc1ccc(-c2cc(C(F)(F)C(F)F)[nH]n2)cc1"
  qualitative-label: "t"
- compound: "CC(C)[C@H](NC(=O)OC(C)(C)C)C(=O)N/N=C/c1ccc2nccnc2c1"
  qualitative-label: "f"
- compound: "CC(=O)Oc1oc(-c2ccccc2)nc1/C=N/c1ccccc1"
  qualitative-label: "t"

Field: next compound
Prompt: Check the results log: what was the call for CCOC(=O)Cc1csc(NC(=O)CSc2nnc(-c3ccncc3)o2)n1 ?
Completion: f
